experimental target: Calpain-2 catalytic subunit (Sus scrofa)
Sequence (P43367 whole entry): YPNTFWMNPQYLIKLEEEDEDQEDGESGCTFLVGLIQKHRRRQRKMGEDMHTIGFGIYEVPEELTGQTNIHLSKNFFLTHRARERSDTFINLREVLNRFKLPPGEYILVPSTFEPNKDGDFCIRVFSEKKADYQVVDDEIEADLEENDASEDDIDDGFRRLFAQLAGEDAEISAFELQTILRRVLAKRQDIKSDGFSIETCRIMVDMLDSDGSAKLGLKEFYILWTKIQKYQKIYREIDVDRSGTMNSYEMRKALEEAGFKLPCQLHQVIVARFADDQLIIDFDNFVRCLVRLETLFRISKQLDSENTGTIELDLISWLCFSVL
test protocol: pig calpain II inhibitor potency, dose response, biochemical, fluorogenic peptide substrate (AID 1420)
Assay type: functional
Below: a set of entries, each annotated with reported IC50.
measure: IC50

| smiles | experimental target | result |
| --- | --- | --- |
| O=C(O)c1ccc(CSc2nc[nH]n2)cc1 | Calpain-2 catalytic subunit (Sus scrofa) | < 0.4 µM (not active) |
| CCOc1ccc(OCC)c(S(=O)(=O)NCCOC23CC4CC(CC(C4)C2)C3)c1 | Calpain-2 catalytic subunit (Sus scrofa) | 8.71 µM (not active) |
| Clc1ccc(-c2nnnn2-c2ccc(Cl)c(Cl)c2)cc1Cl | Calpain-2 catalytic subunit (Sus scrofa) | < 0.4 µM (not active) |
| Cc1cc(C)c(NC(=S)NC(=O)c2ccc(-c3ccccc3)cc2)c(C)c1 | Calpain-2 catalytic subunit (Sus scrofa) | 12.4 µM (not active) |
| Cc1ccc(C(=O)N2CCN(c3ccccc3Cl)CC2)cc1[N+](=O)[O-] | Calpain-2 catalytic subunit (Sus scrofa) | > 50 µM (not active) |
| CCOc1ccc(NS(=O)(=O)c2ccc(NC(=S)NC(=O)CC(C)C)cc2)cc1 | Calpain-2 catalytic subunit (Sus scrofa) | 6.89 µM (not active) |
| O=C1N=C(Nc2ccccc2)S/C1=C/c1cccs1 | Calpain-2 catalytic subunit (Sus scrofa) | > 50 µM (not active) |
| O=C(N=Nc1c(O)[nH]c2ccc(Cl)cc12)c1cc(-c2cccs2)nc2ccccc12 | Calpain-2 catalytic subunit (Sus scrofa) | 10.3 µM (not active) |
| Cc1nnc(Sc2cc(NCCO)c([N+](=O)[O-])c3nonc23)s1 | Calpain-2 catalytic subunit (Sus scrofa) | > 50 µM (not active) |
